List of inhibition at 5000 µM values.
procedure.text: Cardiovascular toxicity in rat aorta assessed as inhibition of noradrenaline-induced vasoconstriction at 5 mM relative to control
Assay type: tissue-based
measurement.parameters: isolated rat aorta
measured.endpoint: inhibition at 5000 µM (%)

[[record]]
compound_string = "CN(C)c1ccc(C2=NC(C)(C)C(C)(C)N2O)cc1"
measure_unit = "%"
experimental_value = 6.63

[[record]]
compound_string = "CC1(C)N=C(c2ccc(Br)cc2)N(O)C1(C)C"
measure_unit = "%"
experimental_value = 18.4

[[record]]
compound_string = "CC1(C)N=C(c2ccc([N+](=O)[O-])cc2)N(O)C1(C)C"
measure_unit = "%"
experimental_value = 32.7

[[record]]
compound_string = "CC1(C)N=C(c2ccccc2O)N(O)C1(C)C"
measure_unit = "%"
experimental_value = 22.9

[[record]]
compound_string = "CC1(C)N=C(c2ccc(O)cc2)N(O)C1(C)C"
measure_unit = "%"
experimental_value = 13.6

[[record]]
compound_string = "CC1(C)N=C(c2ccc3c(c2)OCO3)N(O)C1(C)C"
measure_unit = "%"
experimental_value = 21.9

[[record]]
compound_string = "COc1ccc(C2=NC(C)(C)C(C)(C)N2O)c(OC)c1"
measure_unit = "%"
experimental_value = 23.3

[[record]]
compound_string = "CC1(C)N=C(c2ccc(Cl)c(Cl)c2)N(O)C1(C)C"
measure_unit = "%"
experimental_value = 22.8

